Molecular target: GRID2IP_1, A4D2P6
Sequence (A4D2P6 1-87): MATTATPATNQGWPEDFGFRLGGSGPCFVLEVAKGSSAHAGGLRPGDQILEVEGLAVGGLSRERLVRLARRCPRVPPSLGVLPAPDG
Experiment: holdup assay
Set-up: key: below the threshold = too weak to quantify, mostly under pKd 3.1 to 4
Details: plain residues with an end cap or a label only (N-terminal biotin on a linker: ado-ado)
EXPERIMENTAL_READOUT: pKd

BINDER | ENDPOINT_VALUE
KAEEKPPSKV [SCN4B, Q8IWT1] | below the threshold
NNMAFETTHF [SLC5A12, Q1EHB4] | below the threshold
IKLETKKTKL [SLC15A2, Q16348] | below the threshold
TKDKVQETQI [LRRC4, Q9HBW1] | below the threshold
